- experimental_target: recombinant human cathepsin L (hCatL) (Homo sapiens)
- Construct: purchased Sigma-Aldrich
- Sequence (P07711 114-333): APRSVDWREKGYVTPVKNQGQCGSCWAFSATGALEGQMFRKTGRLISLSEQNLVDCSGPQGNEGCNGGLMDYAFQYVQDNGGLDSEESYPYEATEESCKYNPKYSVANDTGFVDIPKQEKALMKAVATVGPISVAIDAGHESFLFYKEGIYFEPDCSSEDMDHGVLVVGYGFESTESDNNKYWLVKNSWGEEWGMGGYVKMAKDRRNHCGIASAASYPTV
- protocol_summary: hCatL screening, cleavage of Z-FR-AMC
- Type: biochemical
- study_conditions: 10 min incubation, read-out: % hCatL inhib.

{"compound": "O=CC(CO)n1cc(C(C2CCCCC2)N2CCc3ccccc3C2)nn1 (stereo not drawn)", "inhibition at 100 µM": "0%"}
{"compound": "NCCCCC(C=O)n1cc(C(NCc2ccc3c(c2)OCO3)C2CCCCC2)nn1 (stereo not drawn)", "inhibition at 100 µM": "26%"}
{"compound": "COC(=O)C(CS)n1cc(C(NCc2ccc3c(c2)OCO3)C2CCCCC2)nn1 (stereo not drawn)", "inhibition at 100 µM": "0%"}
{"compound": "O=CC(Cc1ccc(O)cc1)n1cc(C(NCc2ccc3c(c2)OCO3)C2CCCCC2)nn1 (stereo not drawn)", "inhibition at 100 µM": "0%"}
{"compound": "O=CC(CO)n1cc(C(NCc2ccc3c(c2)OCO3)C2CCCCC2)nn1 (stereo not drawn)", "inhibition at 100 µM": "7%"}
{"compound": "O=CC(Cc1c[nH]cn1)n1cc(C(NCc2ccc3c(c2)OCO3)C2CCCCC2)nn1 (stereo not drawn)", "inhibition at 100 µM": "10%"}
